System: primary human T-cells
protocol_summary: Proliferation assay after 5 days (CellTiter-Glo, CD3 stimulation; PBS counter screen)
Assay type: cell-based
conditions_used: Homo sapiens, T-cell, 120 h, primary human T-cells, CD3 stimulation, CellTiter-Glo after 5 days; EC50 of fitted sigmoidal curve; read-out: Tcell Proliferation CD3 EC50
endpoint_label: EC50

compound: CC(C)(C)n1nnc(-c2cc3c(cc2F)S(=O)(=O)C[C@H](N)C(=O)N3Cc2ccc(Cl)cc2)n1 [Example 8]
target_or_test_system: primary human T-cells
recorded_result: 84.5 nM

compound: CC(C)(C)c1nnc(-c2cc3c(cc2O)S(=O)(=O)C[C@H](N)C(=O)N3Cc2ccc(Cl)cc2)o1 [Example 273]
target_or_test_system: primary human T-cells
recorded_result: 3190 nM

compound: COC1(c2nnc(-c3ccc4c(c3)N(Cc3ccc(Cl)cc3)C(=O)[C@@H](N)CS4(=O)=O)o2)CC1 [Example 365]
target_or_test_system: primary human T-cells
recorded_result: 686 nM

compound: CC(=O)N1CCC(n2nnc(-c3cc4c(cc3F)S(=O)(=O)C[C@H](N)C(=O)N4Cc3ccc(Cl)cc3)n2)CC1 [Example 11]
target_or_test_system: primary human T-cells
recorded_result: 1360 nM

compound: COC(F)(c1nc(-c2cc3c(cc2F)[S+]([O-])C[C@H](N)C(=O)N3Cc2ccc(Cl)cc2)no1)C(F)(F)F (stereo partly shown) [Example 338]
target_or_test_system: primary human T-cells
recorded_result: 282 nM

compound: CC(=O)N1CC2CC2(c2nnc(-c3cc4c(cc3F)S(=O)(=O)C[C@H](N)C(=O)N4Cc3ccc(Cl)cc3)o2)C1 (stereo partly shown) [Example 182]
target_or_test_system: primary human T-cells
recorded_result: > 10000 nM

compound: CC(C)(c1nnc(-c2cc3c(cc2F)S(=O)(=O)C[C@H](N)C(=O)N3Cc2ccc(Cl)cc2)o1)N1CCCC1 [Example 128]
target_or_test_system: primary human T-cells
recorded_result: 534 nM

compound: CC(C)(C)c1nnc(-c2ccc3c(c2)N(Cc2ccc(OC4CCCC4)cc2)C(=O)[C@@H](N)CS3(=O)=O)o1 [Example 430]
target_or_test_system: primary human T-cells
recorded_result: 97 nM

compound: N[C@H]1CS(=O)(=O)c2cc(F)c(-c3nnc(C(=O)N4CCC(F)(F)C4)o3)cc2N(Cc2ccc(Cl)cc2)C1=O [Example 117]
target_or_test_system: primary human T-cells
recorded_result: 5020 nM

compound: N[C@H]1CS(=O)(=O)c2cc(F)c(-c3nnc(NC4CCCN(CC(F)(F)F)C4)o3)cc2N(Cc2ccc(Cl)cc2)C1=O (stereo partly shown) [Example 492]
target_or_test_system: primary human T-cells
recorded_result: 671 nM

compound: [2H]C([2H])([2H])C(c1nnc(-c2ccc3c(c2)N(Cc2ccc(Cl)cc2)C(=O)[C@@H](N)CS3(=O)=O)o1)(C([2H])([2H])[2H])C([2H])([2H])[2H] [Example 380]
target_or_test_system: primary human T-cells
recorded_result: 613 nM

compound: N[C@H]1CS(=O)(=O)c2cc(F)c(-c3nnc(C4CN(C5CC5)CC(F)(F)C4)o3)cc2N(Cc2ccc(Cl)cc2)C1=O (stereo partly shown) [Example 159]
target_or_test_system: primary human T-cells
recorded_result: 184 nM

compound: CC(C)(C)c1nnc(-c2cc3c(cc2F)S(=O)(=O)C[C@H](NC(=O)CCCN)C(=O)N3Cc2ccc(Cl)cc2)o1 [Example 267]
target_or_test_system: primary human T-cells
recorded_result: 3070 nM
